This collection of values is drawn from paper PMC10663500.

Reported koff values for a set of binders
measured-target: T1, human programmed cell death protein 1 (hPD-1) C93S (aa 24-167) (Homo sapiens, UniProt Q15116, C93S)
T1 construct: made as a fusion with a TEV site and human Fc; the Fc was cut off with TEV protease; source: Expi293F, purified (Protein A, TEV cleavage of Fc, SEC; monomer fractions); not shown: Fc (human), C-terminal, cleaved
T1 sequence (Q15116 24-167 C93S): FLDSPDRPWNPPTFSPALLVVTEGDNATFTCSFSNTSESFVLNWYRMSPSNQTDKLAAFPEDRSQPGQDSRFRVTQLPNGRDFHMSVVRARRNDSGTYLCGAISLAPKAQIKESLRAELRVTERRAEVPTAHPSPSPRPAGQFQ
experimental-details: SPR; Carterra LSA; Fab from the ammonium sulfate precipitate of the culture supernatant immobilised on a NiHC200M chip; hPD-1 (1-1024 nM) or mPD-1-Fc (4-1024 nM) as analyte, fourfold dilution series, no regeneration; HBS-EP pH 7.4, 25 °C; medians over the spots of a construct, KD = koff/kon
condition-notes: one partner purified
Please reply with the bare figure in s⁻¹ and do not write the unit itself.

Some solved cases for reference:
Task item: Identify the reported koff for the following entry. toripalimab Fab H.H35A (Fab, V domains shown, heavy chain of Sm3 with this change; numbers count from the chain's first residue; as the light chain of Sm3; source: Brevibacillus, culture supernatant (ammonium sulfate precipitate); not shown: 6xHis, C-terminal, kept; 6xHN, C-terminal, kept) VH: QGQLVQSGAEVKKPGASVKVSCKASGYTFTDYEMAWVRQAPIHGLEWIGVIESETGGTAYNQKFKGRVTITADKSTSTAYMELSSLRSEDTAVYYCAREGITTVATTYYWYFDVWGQGTTVTVSS VL: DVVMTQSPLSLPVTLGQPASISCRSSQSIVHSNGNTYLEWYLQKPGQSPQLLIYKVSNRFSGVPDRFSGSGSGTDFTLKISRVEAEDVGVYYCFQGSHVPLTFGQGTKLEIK
Reply: 0.00804

Task item: Identify koff associated with the binder toripalimab Fab H.Y111A (Fab, V domains shown, heavy chain of Sm3 with this change; numbers count from the chain's first residue; as the light chain of Sm3; source: Brevibacillus, culture supernatant (ammonium sulfate precipitate); not shown: 6xHis, C-terminal, kept; 6xHN, C-terminal, kept) VH: QGQLVQSGAEVKKPGASVKVSCKASGYTFTDYEMHWVRQAPIHGLEWIGVIESETGGTAYNQKFKGRVTITADKSTSTAYMELSSLRSEDTAVYYCAREGITTVATTYYWAFDVWGQGTTVTVSS VL: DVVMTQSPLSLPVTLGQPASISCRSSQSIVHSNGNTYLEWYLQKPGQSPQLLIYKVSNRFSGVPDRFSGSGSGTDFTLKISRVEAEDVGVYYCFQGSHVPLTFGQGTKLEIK
Reply: 0.0601

Continue with the binder presented below.
Task item: Given toripalimab Fab L.P100M (Fab, V domains shown, as the heavy chain of Sm3; light chain of Sm3 with this change; numbers count from the chain's first residue; source: Brevibacillus, culture supernatant (ammonium sulfate precipitate); not shown: 6xHis, C-terminal, kept; 6xHN, C-terminal, kept) VH: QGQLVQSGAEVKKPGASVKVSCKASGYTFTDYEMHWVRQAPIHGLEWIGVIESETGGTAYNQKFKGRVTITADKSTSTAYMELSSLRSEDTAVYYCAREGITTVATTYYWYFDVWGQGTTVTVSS VL: DVVMTQSPLSLPVTLGQPASISCRSSQSIVHSNGNTYLEWYLQKPGQSPQLLIYKVSNRFSGVPDRFSGSGSGTDFTLKISRVEAEDVGVYYCFQGSHVMLTFGQGTKLEIK , respond with its koff.
Reply: 5.38e-05
